Target: T1, recombinant human BCMA Fc(kih) (human, UniProt Q02223 4-53, site-specifically biotinylated at the C-terminal avi-tag ; Biotin on the avi-tag at the C-terminus of the Fc knob chain (tag and Fc left out).)
T1 construct: Knobs-into-holes heterodimer carrying one BCMA ectodomain; also called huBCMA Fc(kih); huBCMA; not shown: human IgG1 hinge-Fc knob chain with C-terminal avi-tag, and the unfused Fc hole chain
T1 chain: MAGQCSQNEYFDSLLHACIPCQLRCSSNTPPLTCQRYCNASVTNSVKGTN
Experiment: SPR one-shot kinetics (ProteOn XPR36), IgG captured from HEK293 supernatant via anti-human F(ab)2, BCMA as analyte
Below is a list of entries, each paired with its recorded Kd value.

binder	measure_unit	Kd
Mab 27 IgG (antibody, V domains shown) VH: EVQLLESGGGLVQPGGSLRLSCAASGFTFSSAPMGWVRQAPGKGLEWVSAISYIGHTYYADSVKGRFTISRDNSKNTLYLQMNSLRAEDTAVYYCAKVLGWFDYWGQGTLVTVSS VL: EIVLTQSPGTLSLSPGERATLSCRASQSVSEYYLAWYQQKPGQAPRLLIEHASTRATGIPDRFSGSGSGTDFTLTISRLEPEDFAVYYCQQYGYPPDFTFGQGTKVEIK	nM	0.00039
Mab 39 IgG (antibody, V domains shown) VH: EVQLLESGGGLVQPGGSLRLSCAASGFTFTQNAMGWVRQAPGKGLEWVSAISPTGFSTYYADSVKGRFTISRDNSKNTLYLQMNSLRAEDTAVYYCAKVLGWFDYWGQGTLVTVSS VL: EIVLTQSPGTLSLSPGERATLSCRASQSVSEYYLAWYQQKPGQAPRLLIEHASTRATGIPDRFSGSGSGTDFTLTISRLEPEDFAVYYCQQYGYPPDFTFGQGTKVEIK	nM	0.062
Mab 33 IgG (antibody, V domains shown) VH: EVQLLESGGGLVQPGGSLRLSCAASGFTFYTNAMGWVRQAPGKGLEWVSAINRFGGSTYYADSVKGRFTISRDNSKNTLYLQMNSLRAEDTAVYYCAKVLGWFDYWGQGTLVTVSS VL: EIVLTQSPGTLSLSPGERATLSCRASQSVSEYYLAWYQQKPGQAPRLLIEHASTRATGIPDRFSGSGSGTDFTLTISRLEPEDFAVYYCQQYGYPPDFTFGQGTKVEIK	nM	0.017
